Taken from PubChem BioAssay AID602148.

Test system: U937 deltaST FPR, LDV-FITC VLA-4 binding, flow cytometry
Experiment: GTPase hits reducing LDV-FITC binding to VLA-4 – U937 deltaST FPR cells, flow cytometry, mechanism study for Ras-related GTPase inhibitor project (AID 602148)
Conditions: at 50 µM
Calls of active or inactive are those of the source.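 How the source made its calls: active means a drop over time in fluorescent ligand binding to the VLA-4 integrin, graded weak or strong, level 1 or 2; inactive means no binding drop, level 0.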
Use one of these outcomes when replying: active, inactive

Example results:
CC1(C)Cc2c(sc(NC(=S)NC(=O)c3ccc(Br)cc3)c2C(=O)O)CO1 ... active
COc1cccc(C(=O)NC(=S)Nc2sc3c(c2C(=O)O)CC(C)(C)OC3)c1 ... active
CC1(C)Cc2c(sc(NC(=S)NC(=O)c3cccc(Br)c3)c2C(=O)O)CO1 ... active
CC1(C)Cc2c(sc(NC(=S)NC(=O)c3ccccc3Br)c2C(=O)O)CO1 ... active
O=C(NC(=S)Nc1sc2c(c1C(=O)O)CC1(CCCC1)OC2)c1ccccc1 ... inactive

Outcome? COc1ccccc1C(=O)NC(=S)Nc1sc2c(c1C(=O)O)CC(C)(C)OC2
active

Recorded call for CC1(C)Cc2c(sc(NC(=S)NC(=O)c3ccc(F)cc3)c2C(=O)O)CO1 ?
inactive

What did this assay record as the result for CC1(C)Cc2c(sc(NC(=S)NC(=O)C3CCCCC3)c2C(=O)O)CO1 ?
active

* * *

Test system: U937 deltaST FPR, LDV-FITC VLA-4 binding, flow cytometry
Assay: GTPase hits reducing LDV-FITC binding to VLA-4 – U937 deltaST FPR cells, flow cytometry, mechanism study for Ras-related GTPase inhibitor project (AID 602148)
Settings: at 50 µM; hits give high values
# maps each entry to its VLA-4 affinity decrease level (0-2)
Give the figure by itself; no unit, no explanation.

Below are worked cases with known answers.
CC1(C)Cc2c(sc(NC(=S)NC(=O)c3cccs3)c2C(=O)O)CO1 ... 0
CCC1(C)Cc2c(sc(NC(=S)NC(=O)c3ccccc3)c2C(=O)O)CO1 (stereo not given) ... 0
Cc1cccc(C(=O)NC(=S)Nc2sc3c(c2C(=O)O)CC(C)(C)OC3)c1 ... 0
CC1(C)Cc2c(sc(NC(=S)NC(=O)c3ccco3)c2C(=O)O)CO1 ... 0
CC1(C)Cc2c(sc(NC(=S)NC(=O)c3ccccc3F)c2C(=O)O)CO1 ... 0
CC1(C)Cc2c(sc(NC(=S)NC(=O)c3cccc(F)c3)c2C(=O)O)CO1 ... 1
COc1ccc(C(=O)NC(=S)Nc2sc3c(c2C(=O)O)CC(C)(C)OC3)cc1 ... 1
Cc1ccccc1C(=O)NC(=S)Nc1sc2c(c1C(=O)O)CC(C)(C)OC2 ... 0

Let me know recorded VLA-4 affinity decrease level (0-2) for CC(C)(C)C1Cc2c(sc(NC(=S)NC(=O)c3ccccc3)c2C(=O)O)CO1 (stereo not given) , thanks.
0

Fill in VLA-4 affinity decrease level (0-2) for record Cc1ccc(C(=O)NC(=S)Nc2sc3c(c2C(=O)O)CC(C)(C)OC3)cc1
0
